assay_summary: Selectivity index for antiviral vs cytotoxic activity in Vero cells (CC50/IC50)
assay_setup: monkey, Vero cells
reported_property: selectivity ratio
Respond with the number and no other words.

C[C@@H]1O[C@@H](O[C@H]2C[C@@H](O)[C@]3(CO)[C@H]4[C@H](O)C[C@]5(C)[C@@H](C6=CC(=O)OC6)CC[C@]5(O)[C@@H]4CC[C@]3(O)C2)[C@H](O)[C@H](O)[C@H]1O [OUABAIN OCTAHYDRATE]
516

Please fill in: selectivity ratio reported for COc1ccc2cc1Oc1ccc(cc1)C[C@H]1c3c(cc4c(c3Oc3cc5c(cc3OC)CCN(C)[C@@H]5C2)OCO4)CCN1C [CEPHARANTHINE] = 11.2

Please fill in: selectivity ratio reported for CC(C)C(=O)OCC(=O)[C@@]12O[C@H](C3CCCCC3)O[C@@H]1C[C@H]1[C@@H]3CCC4=CC(=O)C=C[C@]4(C)[C@H]3[C@@H](O)C[C@@]12C [CICLESONIDE] = 11.6

###

assay_summary: Selectivity index for antiviral vs cytotoxic activity in Vero cells (CC50/IC50)
assay_setup: monkey, Vero cells
Recorded measurements of selectivity ratio, one per entry
Respond with the number and no other words.

Field: example entries. Status: answers known.
CC/C(=C(/c1ccc(OCCN(C)C)cc1)c1cccc(O)c1)c1ccccc1
2.4
CSc1ccc2c(c1)N(CCC1CCCCN1C)c1ccccc1S2 (stereo not given)
2.39
CCc1nc(C(N)=O)c(Nc2ccc(N3CCC(N4CCN(C)CC4)CC3)c(OC)c2)nc1NC1CCOCC1
5.5

Please fill in: selectivity ratio reported for C1CCC(C(CC2CCCCN2)C2CCCCC2)CC1 (stereo not given) = 1.36

Please fill in: selectivity ratio reported for OC1(c2ccc(Cl)c(C(F)(F)F)c2)CCN(CCCC(c2ccc(F)cc2)c2ccc(F)cc2)CC1 = 1.75

Please fill in: selectivity ratio reported for CCCCc1oc2ccc(NS(C)(=O)=O)cc2c1C(=O)c1ccc(OCCCN(CCCC)CCCC)cc1 = 2.23

Please fill in: selectivity ratio reported for CCN(CC)CCOc1ccc(C(=C(Cl)c2ccccc2)c2ccccc2)cc1 = 2.8

Please fill in: selectivity ratio reported for CCN(CC)CCOc1ccc(C(O)(Cc2ccc(Cl)cc2)c2ccc(C)cc2)cc1 (stereo not given) = 2.09

Please fill in: selectivity ratio reported for C[C@H]1O[C@@H](O[C@H]2[C@@H](O)C[C@H](O[C@H]3[C@@H](O)C[C@H](O[C@H]4CC[C@@]5(C)[C@H](CC[C@@H]6[C@@H]5C[C@@H](O)[C@]5(C)[C@@H](C7=CC(=O)OC7)CC[C@]65O)C4)O[C@@H]3C)O[C@@H]2C)C[C@H](O)[C@@H]1O = 257

Please fill in: selectivity ratio reported for c1ccc2c(c1)Sc1ccccc1N2CC1CN2CCC1CC2 (stereo not given) = 3.76

Please fill in: selectivity ratio reported for CCCCCCO[C@@H](C)c1cccc(-c2csc(NC(=O)c3cc(Cl)c(/C=C(\C)C(=O)O)c(Cl)c3)n2)c1OC = 3.87

###

assay_summary: Selectivity index for antiviral vs cytotoxic activity in Vero cells (CC50/IC50)
assay_setup: monkey, Vero cells
Starred links: 1 amine or outer side, 2 acyl side, 3 side chain; linkers in the order of their positions; H or OH if unused. Positions of bridges follow the written chain, without caps; N, C: chain ends. Non-standard residues stand in square brackets, D forms with d. Residues, ends and D or L forms follow the SMILES beside them. *: point of attachment. pTerphenylCO(4''-OnC5H11) = CCCCCOc1ccc(-c2ccc(-c3ccc(C(=O)*)cc3)cc2)cc1; Orn(4R-OH,5R-OH) = O=C([C@H](C[C@@H](O)[C@@H](O)N[*:3])N[*:1])[*:2]; hTyr(3S-OH,4S-OH) = N[C@H](C(=O)O)[C@H](O)[C@@H](O)c1ccc(O)cc1; Pro(3S-OH,4S-Me) = C[C@H]1CN[C@H](C(=O)O)[C@H]1O; Hyp = O=C(O)[C@@H]1C[C@@H](O)CN1
reported_property: selectivity ratio
Respond with the number and no other words.

CCCCCOc1ccc(-c2ccc(-c3ccc(C(=O)N[C@H]4C[C@@H](O)[C@@H](O)NC(=O)[C@@H]5[C@@H](O)[C@@H](C)CN5C(=O)[C@H]([C@@H](C)O)NC(=O)[C@H]([C@H](O)[C@@H](O)c5ccc(O)cc5)NC(=O)[C@@H]5C[C@@H](O)CN5C(=O)[C@H]([C@@H](C)O)NC4=O)cc3)cc2)cc1 [ANIDULAFUNGIN] ({pTerphenylCO(4''-OnC5H11)}-[Orn(4R-OH,5R-OH)]T[Hyp][hTyr(3S-OH,4S-OH)]T[Pro(3S-OH,4S-Me)]; lactam 1-C)
10.8

Please fill in: selectivity ratio reported for COc1ccc2cc1Oc1ccc(cc1)C[C@H]1c3cc(c(OC)cc3CCN1C)Oc1c(OC)c(OC)cc3c1[C@H](C2)N(C)CC3 = 4.97
